endpoint-label: melting point (°C)

> print(dat)
                              sample.smiles  reading
1  N#CCCCC(=O)N[C@H]1CC[C@H](CCN2CCN(c3ccc(Cl)c(Cl)c3F)CC2)CC1      199
2  N#CCC(=O)N[C@H]1CC[C@H](CCN2CCN(c3cc(F)c(F)c(F)c3)CC2)CC1      209
3  Cc1cccc(N2CCN(CC[C@H]3CC[C@H](NC(=O)C4CC=CC4)CC3)CC2)c1      200
4  Cc1ccccc1N1CCN(CC[C@H]2CC[C@H](NC(=O)CC#N)CC2)CC1      150

---

endpoint-label: melting point (°C)

> print(dat)
                                   compound  reading
1  CO[C@H](C)C(=O)N[C@H]1CC[C@H](CCN2CCN(c3ccccc3F)CC2)CC1 (stereo in doubt) [Example 75]      162
2  CC(=O)CN1CCC(CCN2CCN(c3cccc(C)c3)CC2)CC1.Cl.Cl      260
3  COCC(=O)N[C@H]1CC[C@H](CCN2CCN(c3ccc(F)c(C(F)(F)F)c3)CC2)CC1 [Example 760]      146
4  CC(=O)CN1CCC(CCN2CCN(c3ccc(Cl)cc3F)CC2)CC1.Cl.Cl      206
5  COc1ccc(N2CCN(CC[C@H]3CC[C@H](NC(=O)CCCC#N)CC3)CC2)cc1 [Example 582]      200

I: CC(=O)CN1CCC(CCN2CCN(c3ccc(F)c(C)c3)CC2)CC1.Cl.Cl
II: COCCCC(=O)N[C@H]1CC[C@H](CCN2CC=C(c3cccc(C(F)(F)F)c3)CC2)CC1
III: CC(=O)CN1CCC(CCN2CCN(c3cccc(C(C)O)c3)CC2)CC1 (stereo not shown) [Example 606]
Exam item: list the entries in increasing order of melting point. I would appreciate it if you listed the labels in the requested order.
III, II, I

I: CC(C)Oc1cccc(N2CCN(CC[C@H]3CC[C@H](NC(=O)CC#N)CC3)CC2)c1.Cl
II: CC(=O)CN1CCC(CCN2CCN(c3cc(F)c(F)c(F)c3)CC2)CC1 [Example 697]
Rank I against II by their melting point values and give the higher one. Mark your selection by writing its label.
I
(I: 191 °C, II: 86 °C)

I: CC(=O)CN1CCC(CCN2CCN(c3ccc(F)c(F)c3)CC2)CC1.Cl.Cl
II: N#CCCCC(=O)N[C@H]1CC[C@H](CCN2CCN(c3cccc4c3CCCC4)CC2)CC1 [Example 209]
Rank I against II by their melting point values and give the higher one. Mark your selection by writing its label.
I

I: N#CCCCC(=O)N[C@H]1CC[C@H](CCN2CCN(c3ccc(Cl)c(Cl)c3Cl)CC2)CC1 [Example 765]
II: COc1ccc(Cl)c(N2CCN(CCC3CCN(CC(C)=O)CC3)CC2)c1.Cl.Cl
// select label with min value of measured melting point from [ I , II ] Mark your selection by writing its label.
I
(I: 176 °C, II: 263 °C)

---

endpoint-label: melting point (°C)

a: CC(=O)CN1CCC(CCN2CCN(c3cc(C(F)(F)F)ccc3F)CC2)CC1.Cl.Cl
b: CCc1cccc(C2=CCN(CC[C@H]3CC[C@H](NC(=O)CC#N)CC3)CC2)c1
Rank a against b by their melting point values and give the higher one. Mark your selection by writing its label.
a
(a: 230 °C, b: 158 °C)
